Target: Estrogen receptor beta (Homo sapiens) (UniProt Q92731)
Sequence (Q92731 whole entry, looked up, the tested form may be a part): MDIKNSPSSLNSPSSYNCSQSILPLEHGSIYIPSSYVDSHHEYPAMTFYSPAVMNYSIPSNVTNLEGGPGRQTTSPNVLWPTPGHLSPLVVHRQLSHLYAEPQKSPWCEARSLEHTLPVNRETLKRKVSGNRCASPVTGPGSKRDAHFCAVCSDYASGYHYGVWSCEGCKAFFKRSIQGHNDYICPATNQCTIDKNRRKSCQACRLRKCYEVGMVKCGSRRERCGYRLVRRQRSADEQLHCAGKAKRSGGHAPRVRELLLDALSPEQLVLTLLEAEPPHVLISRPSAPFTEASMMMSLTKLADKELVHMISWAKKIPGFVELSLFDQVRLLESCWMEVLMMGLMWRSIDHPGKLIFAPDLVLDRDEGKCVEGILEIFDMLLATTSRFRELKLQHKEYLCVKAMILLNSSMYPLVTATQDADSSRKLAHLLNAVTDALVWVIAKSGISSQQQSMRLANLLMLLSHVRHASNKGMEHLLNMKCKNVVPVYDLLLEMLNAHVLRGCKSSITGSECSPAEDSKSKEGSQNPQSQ
Assay: OT_ER_ERbERb_1440: Odyssey Thera (OT) 24-hour HEK293T Protein-Complementation Assay for Estrogen Receptor-beta/-beta Homodimer (AID 2283380);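 further: fluorescence gain from ER beta LBD homodimer complementation read by laser scanning cytometry; scored as signal increase over DMSO baseline for both agonists and antagonists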
Experimental: OT_ER_ERbERb_1440 is a cell-based assay that uses HEK293T, a human kidney cell line, with measurements taken at 24 hours after chemical dosing in a 384-well plate.OT_ER_ERbERb_1440 is one of one assay component(s) measured or calculated from the OT_ER_ERbERb_1440 assay. […] This assay endpoint, OT_ER_ERbERb_1440, was analyzed in the positive analysis fitting direction relative to DMSO as the negative control and baseline of activity. […]
The source made the active and inactive calls. How the source made its calls: active means hit-call score of the fitted dose curve at least 0.9, where 1 is the maximum; inconclusive means response in the unintended direction; inactive means score below 0.9.
Labels: yes for active, no for inactive

molecule	class
CC1(C)[C@@H]2CC[C@@]1(C)[C@H](O)C2	no
NCCCN1CCOCC1	no
O=c1cc(-c2ccccc2)oc2cc(O)cc(O)c12	yes
C=CCOc1nc(OCC=C)nc(OCC=C)n1	yes
COc1ccc(O)cc1	no
CCCCOCCOCCOCCOCCO	no
O=C1C(c2[nH]c3ccc(S(=O)(=O)O)cc3c2O)=Nc2ccc(S(=O)(=O)O)cc21	no
NC(=O)Nc1ccc(Cl)cc1	no
NCCNCCN	no
CCCCCCCCC	no
C=O	no
O=C(O)c1ccc([N+](=O)[O-])cc1	no
CC(C)=CCC[C@](C)(O)[C@@H]1CC=C(C)CC1	no
CC1(C)C(=O)N(Br)C(=O)N1Cl	no
CCCCc1ccc(N)cc1	no
Cc1ccc(C(C)C)cc1O	no
OCCOCCOCCOCCO	no
CCN(CC)c1ccc2c(-c3ccccc3C(=O)O)c3ccc(=[N+](CC)CC)cc-3oc2c1	yes
CCCCCCCCCCCCCOS(=O)(=O)O	no
OCCN1CCNCC1	no
CCC/C=C/C=O	no
COc1c(Cl)c(Cl)c(Cl)c(Cl)c1Cl	no
CCCC/C=C\CCCCCCCCCC=O	no
CCCCC(CC)COC(=O)/C=C\C(=O)OCC(CC)CCCC (stereo unspecified)	no
CCN(CC)c1ccc(C(=C2C=CC(=[N+](CC)CC)C=C2)c2ccc(S(=O)(=O)O)cc2S(=O)(=O)[O-])cc1	no
CCCCC[Si](OCC)(OCC)OCC	no

----------
Read-out: Monokine induced gamma interferon (MIG), CXCL9 (gene 4283)
Assay: BSK_CASM3C_MIG: BioMAP Diversity Plus: CASM3C Assay for Monokine induced gamma interferon (MIG) Biomarker Activity (AID 2283048);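 further: MIG protein level measured by ELISA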
Details: primary human coronary artery smooth muscle cells; actives raise or lower the signal
Activity calls are given as the source filed them. Rule for the calls: active = hit-call score of the fitted dose curve at least 0.9, where 1 is the maximum; inactive = score below 0.9.
Classes used: label 1 = active, label 0 = inactive

compound	class
CC(C)Oc1ccccc1O	label 0
CCCCCCCCCCCCCCCCCC(=O)OCC(CC)CCCC (stereo not given)	label 0
CCCCCCCCC=O	label 0
OC[C@H]1O[C@H](O[C@]2(CCl)O[C@H](CCl)[C@@H](O)[C@@H]2O)[C@H](O)[C@@H](O)[C@H]1Cl	label 0
NCCNCCN	label 0
O=C1CCCCCCCCCCCCCCO1	label 1
CCC(=O)OCc1ccccc1	label 0
Cc1ccc2n[nH]nc2c1	label 0
C=CCOC(=O)CCC1CCCCC1	label 0
O=C(O)C[C@H](O)C[C@H](O)/C=C/c1c(C2CC2)nc2ccccc2c1-c1ccc(F)cc1	label 0
Cc1ccc(Nc2ccc(O)c3c2C(=O)c2ccccc2C3=O)cc1	label 0
O=[N+]([O-])c1cc(C(F)(F)F)ccc1Cl	label 0
CN(CCOc1ccc(CC2SC(=O)NC2=O)cc1)c1ccccn1 (stereo not given)	label 0
C#C[C@]1(O)CC[C@H]2[C@@H]3CCC4=Cc5oncc5C[C@]4(C)[C@H]3CC[C@@]21C	label 0
O=C(O)c1cn(-c2ccc(F)cc2)c2cc(N3CCNCC3)c(F)cc2c1=O	label 0
CCc1c(C)cc(N)c(CC)c1N	label 0
CC1CCC(C(C)CS)CC1S (stereo not given)	label 1
O=P(c1ccccc1)(c1ccccc1)c1ccccc1	label 0
O=C(O)c1ccc([N+](=O)[O-])cc1	label 0
OC1OC[C@@H](O)[C@H](O)[C@H]1O (stereo not given in full)	label 0

----------
Experiment: ATG_TCF_b_cat_CIS: Attagene CIS-FACTORIAL HepG2 Assay for human T-Cell-Factor with beta-catenin (TCF/b-cat) (AID 2282965)
Details: HepG2 TCF/beta-catenin cis-reporter transcription, actives raise or lower the signal
Active and inactive are the calls of the source. The calls were made as follows: active = hit-call score of the fitted dose curve at least 0.9, where 1 is the maximum; inactive = score below 0.9.
Classes used: true for active, false for inactive

compound	class
C=C(C)C(=O)OCc1ccccc1	false
Cc1ccc(C(=O)c2cc(O)c(O)c([N+](=O)[O-])c2)cc1	false
CC(=O)C(=O)O	false
O=C(O)c1cn(-c2ccc(F)cc2)c2cc(N3CCNCC3)c(F)cc2c1=O	false
CCCCCCCCCCCCN(CCCCCCCCCCCC)CCCCCCCCCCCC	false
CCCCCCCCCCCCCC(=O)O	false
CC(=O)[C@H]1CC[C@H]2[C@@H]3CC=C4C[C@@H](O)CC[C@]4(C)[C@H]3CC[C@]12C	true
COc1ccc(OC)c(OC)c1	false
CC1(CO)CN(c2ccccc2)NC1=O (stereo unspecified)	false
CCOC(=O)c1ccccc1OC	false
O=C(O)c1ccc(C(=O)O)cc1	false

----------
Assay: ATG_SREBP_CIS: Attagene CIS-FACTORIAL HepG2 Assay for human Sterol Regulatory Element Binding (SREBP) (AID 2282962)
Settings: HepG2 Attagene cis-factorial SREBP reporter, mRNA; actives raise or lower the signal
Activity calls are given as the source filed them. How the source made its calls: active means hit-call score of the fitted dose curve at least 0.9, where 1 is the maximum; inactive means score below 0.9.
Possible outcomes: 1 = active, 0 = inactive

compound	class
O=CCCc1ccccc1	0
CCC(C)CCCC(C)(C)O (stereo not given)	0
O=C(O)Cc1cccc2ccccc12	0
CSc1nc(NC2CC2)nc(NC(C)(C)C)n1	0
Cc1ccccc1C=O	0
O=C[C@@H](O)[C@H](O)[C@H](O)CO	0
CCN(CC)c1ccc(C(=C2C=CC(=[N+](CC)CC)C=C2)c2ccc(S(=O)(=O)O)cc2S(=O)(=O)[O-])cc1	0
CCCCC/C=C/C=C/C=O	0
CCCCCC=CCC(=O)OC	0
Cc1cccc(C)c1[N+](=O)[O-]	0
CCCCC(CC)COCCC#N (stereo not given)	0
COCCOCCOCCOCCOCCO	0
Cc1ccc(O)c(C(C)(C)C)c1	1
O=S(=O)(O)c1ccc(O)c2ncccc12	0
CCCCN	0
C=COCCOCCOCCOC=C	0
CCn1c2ccccc2c2cc(N)ccc21	1
CCOC(=S)SSC(=S)OCC	0
CC1CC(OC(=O)c2ccccc2O)CC(C)(C)C1 (stereo not given)	0
CCCCCCCCCC=O	0
NCCNCCN	0
FC1(F)C(F)(F)C(F)(F)C2(F)C(F)(C1(F)F)C(F)(F)C(F)(F)C1(F)C(F)(F)C(F)(F)C(F)(F)C(F)(F)C12F (stereo not given)	0
C=CC(=O)NCOCC(C)C	0
S=C(S)NCCNC(=S)S	0
CCCCCCOC(=O)CCCCC	0
CCCCCCCCCCCCCCCC(=O)OC[C@H](O)[C@H]1OC(=O)C(O)=C1O	1
Sc1nc(S)nc(S)n1	0
O=c1[nH]nnc2ccccc12	0
CN1Cc2c(N)cccc2C(c2ccccc2)C1 (stereo not given)	0
COc1cc(C=O)ccc1OC(=O)C(C)C	0
CNC(=O)Oc1ccc2c(c1)[C@]1(C)CCN(C)[C@@H]1N2C	0
C[C@H]1C[C@H]2[C@@H]3CCC4=CC(=O)C=C[C@]4(C)[C@@]3(F)[C@@H](O)C[C@]2(C)[C@@]1(O)C(=O)COP(=O)(O)O	0
CCCC(=O)c1cc(O)c(O)cc1O	0
O=C(OCc1ccccc1)C(=O)OCc1ccccc1	0
Nc1cc(N)cc(C(=O)O)c1	0
C=CC(=O)OCCOCCOCC	0
CC(C)=CCO	0
OCCN1CCNCC1	0
O=Cc1ccc(Cl)c([N+](=O)[O-])c1	1
CCCc1c(OCCCOc2ccc(OCC(=O)O)cc2)ccc(C(C)=O)c1O	0
CC1CCC(C(C)CS)CC1S (stereo not given)	0
CC(C)(C)c1n[nH]c(=S)n(N)c1=O	0
C/C=C(\C)C(=O)OCc1ccccc1	0
O=C1CCc2ccccc2O1	0
CCCCCCCCCCN	0
O=P(c1ccccc1)(c1ccccc1)c1ccccc1	0
Cc1ccc(C(C)C)cc1O	0
Cc1ccc(C(=O)O)o1	0
O=C(COc1ccc(Cl)cc1)N1CCN(Cc2ccc3c(c2)OCO3)CC1	1
O=C1CCCCCCCCCCCCCCO1	0
CCCCCOC(=O)CCC	0
CCCC/C=C\CCCCCCCCCC=O	0
CCCC(C)C=O (stereo not given)	0
O=C(O)c1cn(-c2ccc(F)cc2)c2cc(N3CCNCC3)c(F)cc2c1=O	0
COc1ccc(Cl)cc1C	0
